Attribution: paper PMC10855552

kred × 10^4 (rate of reduction with ascorbate) values by entry
Assay: Kinetics of nitroxide reduction with ascorbate in the presence of glutathione, followed by EPR
Assay type: physicochemical
Conditions: ascorbate 100–300 mM, glutathione 5 mM, 5 mM phosphate-citrate-borate buffer, pH 7.4, 25 °C; values are kred × 10^4
Value expressed in M^−1 s^−1; do not type the unit.

Example entries begin here.
molecule: CCC1(CC)C(CO)=C(CO)C(CC)(CC)N1[O] [compound 22, reference compound]
result.value: 3.4
--
molecule: CCC1(CC)C(CN=[N+]=[N-])C(CNC(=O)OC(C)(C)C)C(CC)(CC)N1[O] (centres unmarked)
result.value: 3.0
--
molecule: CCC1(CC)C(CN=[N+]=[N-])C(CN(C)C)C(CC)(CC)N1[O] (centres unmarked) [11a]
result.value: 4.0

Noted for CCC1(CC)C(CN=[N+]=[N-])C(Cn2nnc(C(=O)[O-])c2C(=O)O)C(CC)(CC)N1[O].[Na+] (centres unmarked) : its kred × 10^4 (rate of reduction with ascorbate) reads 5.9

So, CCC1(CC)C(CN=[N+]=[N-])=C(CN(C)C)C(CC)(CC)N1[O] [11b] ? Its kred × 10^4 (rate of reduction with ascorbate) was 15
